# Tested on: Rattus norvegicus
# assay.overview: Antiallergic activity in po dosed Sprague-Dawley rat assessed as inhibition of egg albumin-induced passive cutaneous anaphylaxis administered 5 mins prior to egg albumin challenge measured after 30 mins by Evan blue dye leakage assay
# Assay type: functional
# conditions.used: read-out: ID50 (the source's name)
quantity.kind: ED50 (mg/kg)
Numeric only. Scale: mg/kg

Known results for compounds:
# substance.smiles, units.text, ED50
records = [
    ("O=c1c(-c2nnn[nH]2)coc2c1ccc1ccccc12", "mg/kg", 7.4),
    ("Cc1cc(C)c2occ(-c3nnn[nH]3)c(=O)c2c1", "mg/kg", 1.25),
]

Below: the item to evaluate.
Please give measured ED50 of the following entry: CC(C)c1ccc2occ(-c3nnn[nH]3)c(=O)c2c1
17

Every entry's value here was drawn from ChEMBL document CHEMBL3272150.
